# SYSTEM_TESTED: SARS-CoV-2 spike on pseudovirus or live virus (USA-WA1/2020, WT) (SARS-CoV-2, UniProt P0DTC2 14-1273)
# PROTOCOL: cell-based or functional assay

BINDER: L12.cP08D07 (antibody, V domains shown, human IgG1) VH: QVQLQESGPGLVKPSETLSLTCTVSGGSISSSSYYWGWIRQPPGKGLEWIGSIYYSGSTYYNPSLKSRVTISVDTSKNQFSLKLSSVTAADTAVYYCARQGDCSTTSCAYDYWGQGTLVTVSS VL: SYELTQPPSVSVSPGQTARITCSGDALPKQYAYWYQQKPGQAPVLVIYKDSERPSGIPERFSGSSSGTTATLTISGVQAEDEADYYCQSADSSGTYLVVFGGGTKLAVL
Maximum Plateau of Neutralization: 64%
//
BINDER: L12.bP12H09 (antibody, V domains shown, human IgG1) VH: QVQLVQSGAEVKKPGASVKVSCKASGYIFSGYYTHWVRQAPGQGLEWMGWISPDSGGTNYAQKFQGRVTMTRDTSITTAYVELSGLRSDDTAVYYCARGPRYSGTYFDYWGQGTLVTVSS VL: QSALTQPASVSGSPGQSITISCTGTSSDVGGYNHVSWYQQHPGKAPKLMIYDVSNRPSGVSNRFSGSKSGNTASLTISGLQAEDEADYYCSSYTSSSAQLFGGGTKLTVL
Maximum Plateau of Neutralization: 100%
//
BINDER: L12.cP09C07 (antibody, V domains shown, human IgG1) VH: QVQLVQSGAEVKKPGASVKVSCKASGYIYSGYFMHWVRQAPGQGLEWMGWISPDSGGANYAQTFQGRVTMTRDTSTTTAHMELSRLRSDDTAVYYCARGPRYSGTHFDYWGQGTLVTVSS VL: QSALTQPASVSGSPGQSLTISCTGTSSDVGGYNYVSWYQQHPDKAPKLMIYDVNNRPSGVSNRFSGSKSGSTASLTISGLQAEDEADYYCSSYAGSSTQVFGGGTKLIVL
Maximum Plateau of Neutralization: 95%

The values you see were collected from patent US20230357364A1.
